- Experiment Summary: qHTS for Inhibitors of the Functional Ribonucleoprotein Complex (vRNP) of Lassa (LASV) Arenavirus: Viability assay - alamar blue signal for LASV Primary Screen (AID 1347083); further: nearly all actives have a fitted effect of over 80% in size
- Reported Conditions: cell viability, alamar blue fluorescence (LASV minigenome counter-screen); series mostly up to 57.5 µM
Results filed as inconclusive are left out. Active and inactive are the calls of the source. The call rests on the fitted dose curve; tested in HEK293 reporter line.
Possible outcomes: active, inactive

{"columns": ["Compound", "Group"],
 "data": [
  ["CC(=O)N[C@@H]1[C@H](O[C@@H]2c3ccc(c(Cl)c3)Oc3cc4cc(c3O[C@H]3O[C@H](CO)[C@@H](O)[C@H](O)[C@H]3NC(=O)CCCCCCCC(C)C)Oc3ccc(cc3Cl)C[C@H]3NC(=O)[C@H](N)c5ccc(O)c(c5)Oc5cc(O)cc(c5)[C@H](NC3=O)C(=O)N[C@H]4C(=O)N[C@H]3C(=O)N[C@@H]2C(=O)N[C@@H](C(=O)O)c2cc(O)cc(O[C@H]4O[C@H](CO)[C@@H](O)[C@H](O)[C@H]4O)c2-c2cc3ccc2O)O[C@H](CO)[C@@H](O)[C@@H]1O", "inactive"],
  ["CNc1nc(Nc2ccc(C(=O)N3CCOCC3)cc2OC)ncc1Cl", "active"],
  ["CC[C@@H](C)[C@@H](O)[C@H](C)C(=O)[C@H](C)/C=C(\\C)C[C@H](C)[C@@H]1OC(=O)[C@H]1CC", "inactive"],
  ["C/C(=C\\c1ccc(C(=O)O)cc1)c1ccc2c(c1)C(C)(C)CCC2(C)C", "inactive"],
  ["CC1CC[C@@]2(OC1)O[C@H]1CC3[C@@H]4C[C@@H](O)[C@@]5(O)C[C@@H](O)[C@H](O)C[C@]5(C)[C@H]4CC[C@]3(C)[C@H]1[C@@H]2C (stereo not given in full)", "inactive"]
]}

====

- Tested on: OV90
- Experiment Summary: Primary qHTS to identify gynecologic anti-cancer compounds using libraries of approved drugs and bioactive compounds (AID 1345084); further: nearly all actives have a fitted effect of over 55% in size
- Reported Conditions: Gynecologic cancer cell panel viability, ATPlite luminescence, 48 h; series mostly up to 57.5 µM
- From the text: National Center for Advancing Translational Sciences [NCATS] Assay Overview: Chemotherapeutic drug responses vary from cancer to cancer and from patient to patient. […] ATPlite is a luminescence based assay reliant on the conversion of a luciferase substrate to light in the presence of ATP. As a cytotoxic compound will suppress growth and decrease the number of cells, the concentration of ATP will decrease, and less light signal will be detected in the well. […]
Inconclusive results are not listed. The source made the active and inactive calls. Calls come from the whole dose curve; as a rule, active = well fitted cell-killing curve with a large enough effect; inconclusive = small, poorly fitted or top-dose-only effect, or effect the other way; inactive = flat fitted curve, though single readings scatter.
Outcomes: active, inactive

{"columns": ["Compound", "Target", "Group"],
 "data": [
  ["CCCCCCC1C(=O)O[C@H](C)[C@H](NC(=O)c2cccc(NC=O)c2O)C(=O)O[C@@H](C)[C@@H]1OC(=O)CC(C)C (some centres undefined)", "OV90", "active"],
  ["C=C1C2(C)CC3C(C)(O)C4=CC(=O)OC(C)(C)C4=CCC3(C)C13C(=O)OC(C)C3(O)C2=O (centres undefined)", "OV90", "inactive"],
  ["C[C@]12CC[C@H](O[C@@H]3O[C@H](CO)[C@@H](O)[C@H](O)[C@H]3O)CC1=CC[C@@H]1C2CC[C@]2(C)[C@@H](C3=CC(=O)OC3)CC[C@]12O (some centres undefined)", "OV90", "inactive"],
  ["CO[C@H]1C[C@H](O[C@H]2CC[C@]3(CO)[C@H]4CC[C@]5(C)[C@@H](C6=CC(=O)OC6)CC[C@]5(O)[C@@H]4CC[C@]3(O)C2)O[C@H](C)[C@H]1O", "OV90", "active"],
  ["CC1CCCC(O)CCC/C=C/c2cc(O)cc(O)c2C(=O)O1 (centres undefined)", "OV90", "inactive"],
  ["CC(=O)O[C@H]1C[C@@H](C)O[C@H]2O[C@@H]3CC4CC[C@@H]5C(CC[C@]6(C)[C@@H](C7=CC(=O)OC7)CC[C@]56O)[C@@]4(C=O)C[C@H]3O[C@]21O (some centres undefined)", "OV90", "active"],
  ["C=C1C[C@]2(O)[C@@]3(C)CCC(=O)C(C)(C)C3=C(O)C(=O)[C@@]2(C)[C@@H]2C(=O)O[C@@](C)(C(=O)OC)C(=O)[C@@]12C", "OV90", "inactive"],
  ["CCOC(=O)c1ccc(-c2ccc(OC(=O)N(C)Cc3cccc(-c4ccncc4)c3)cc2)cc1", "OV90", "inactive"],
  ["C[C@H]1CN(CC[C@H](O)C2CCCCC2)CC[C@@]1(C)c1cccc(O)c1", "OV90", "inactive"],
  ["C[C@@H]1[C@H](O)[C@@H](C)/C=C/C=C/CC/C=C/C=C/C=C/C=C/[C@H](O[C@H]2O[C@@H](C)[C@H](O)[C@@H](N)[C@H]2O)C[C@@H]2O[C@](O)(C[C@@H](O)[C@H](O)CC[C@@H](O)C[C@@H](O)C[C@@H](O)CC(=O)O[C@H]1C)C[C@H](O)[C@H]2C(=O)O", "OV90", "inactive"],
  ["CC1CCCCCC(=O)c2c(O)cc(O)cc2CC(=O)O1 (centres undefined)", "OV90", "inactive"],
  ["C/C1=C/[C@@H](C)C/C=C/[C@H]2[C@@H]3O[C@]3(C)[C@@H](C)[C@H]3[C@H](Cc4c[nH]c5ccccc45)NC(=O)[C@]32C(=O)/C=C\\C(=O)[C@@H]1O", "OV90", "inactive"],
  ["CN1CCCCC1Cn1cc(C(=O)c2cc([N+](=O)[O-])ccc2I)c2ccccc21 (centres undefined)", "OV90", "inactive"],
  ["COC1C(O)C(C)OC(OC2C(CO)O[C@@H](O[C@@H]3CC4CCC5C(CC[C@]6(C)[C@@H](C7=CC(=O)OC7)CC[C@]56O)[C@@]4(C)[C@H](OC(C)=O)C3)C(O)C2O)C1O (some centres undefined)", "OV90", "inactive"],
  ["CC1=CC2/C=C(\\C)CCCC(O)/C=C/C(=O)OC23C(=O)NC(CC(C)C)C3C1C (centres undefined)", "OV90", "inactive"],
  ["CC[C@H]1C2CC3[C@@H]4N(C)c5ccccc5[C@]45C[C@@H]([C@H]2[C@H]5O)N3[C@@H]1O", "OV90", "inactive"],
  ["COC1CC(O[C@H]2CC[C@]3(C=O)C4CC[C@]5(C)[C@@H](C6=CC(=O)OC6)CC[C@]5(O)[C@@H]4CC[C@@H]3C2)OC(C)C1O[C@@H]1O[C@H](CO)[C@@H](O[C@@H]2O[C@H](CO)[C@@H](O)[C@H](O)[C@H]2O)[C@H](O)[C@H]1O (some centres undefined)", "OV90", "active"],
  ["C[C@@H]1CCC/C=C/[C@H]2C[C@@H](O)C[C@@H]2[C@@H](O)/C=C/C(=O)O1", "OV90", "active"],
  ["C[C@]12CC[C@@H](O)C[C@@H]1CC[C@@H]1[C@@H]2CC[C@]2(C)C(=O)[C@@H](Br)C[C@@H]12", "OV90", "inactive"],
  ["CN(Cc1cccc(-c2ccncc2)c1)C(=O)Oc1ccc(-c2ccc(C(N)=O)cc2)cc1", "OV90", "inactive"],
  ["CC1=CC(=O)[C@@H](O)[C@]2(C)C3[C@@H](O)[C@@H]4OC(=O)[C@@H]([C@H]4C)[C@]3(C)C(=O)[C@H](O)[C@@H]12 (some centres undefined)", "OV90", "inactive"],
  ["COCC(C(=O)OC1CC2CCC(C1)N2C)c1ccccc1 (centres undefined)", "OV90", "inactive"],
  ["CO[C@H]1[C@@H](O)[C@@H](C)O[C@@H](O[C@@H]2C=C3C(OC(C)=O)CC4(O)C(CC[C@]5(C)[C@@H](C6=CC(=O)OC6)CC[C@]45O)[C@@]3(C)CC2)[C@@H]1O (some centres undefined)", "OV90", "active"],
  ["Cc1cccc(NC(=O)c2ccc(C(F)(F)F)cc2C(=O)O)n1", "OV90", "inactive"],
  ["NC(=O)[C@@H](CC1CC1)[C@@H](CCC(F)(F)F)C(=O)N[C@H]1N=C(c2ccccc2)c2cccc(F)c2NC1=O", "OV90", "inactive"],
  ["CCCCN1[C@@H]2CC[C@H]1CC(OC(c1ccc(F)cc1)c1ccc(F)cc1)C2 (some centres undefined)", "OV90", "active"],
  ["C/C=C1/CN2CC[C@]34C(=Nc5ccc(OC)cc53)C2C[C@@H]1C4(CO)C(=O)OC (some centres undefined)", "OV90", "inactive"],
  ["COc1cc(O)c2c(c1)/C=C/C[C@@H](O)[C@@H](O)C(=O)CCC[C@H](C)OC2=O", "OV90", "inactive"],
  ["C=CCN1CCC2(C)c3cc(O)ccc3C[C@H]1[C@H]2C", "OV90", "inactive"]
]}

Source: PubChem BioAssay (NCATS)
